Tested on: SK-MEL-28
experimental-details: NCI one-dose SRB growth inhibition
Format: cell-based
experimental-context: Homo sapiens, Melanoma, 48 h, read-out: GI% SK-MEL-28
Protocol: The antitumor assay was performed according to the protocol of the Drug Evaluation Branch, NCI, Bethesda[24–26]. A 48 h drug exposure protocol was adopted, and sulforhodamine B (SRB) assay[27] was utilized to assess the cell growth and viability, as reported earlier[17]^,[28]. The structures of all the newly synthesized pyridines 5a–l were submitted to the National Cancer Institute (NCI) Developmental Therapeutic Program (www.dtp.nci.nih.gov). […]
result-type: inhibition at 10 µM

structure-smiles: Cc1nc(-c2cccs2)ccc1NC(=O)Nc1ccc(Cl)cc1
inhibition at 10 µM: < 10%

structure-smiles: Cc1nc(-c2ccc(F)cc2)ccc1NC(=O)Nc1ccc2c(c1)OCO2
inhibition at 10 µM: < 10%

structure-smiles: CCOC(=O)c1ccc(NC(=O)Nc2ccc(-c3ccc(F)cc3)nc2C)cc1
inhibition at 10 µM: < 10%

structure-smiles: COc1ccc(NC(=O)Nc2ccc(-c3ccc(Cl)cc3)nc2C)cc1
inhibition at 10 µM: 13%

structure-smiles: Cc1nc(-c2ccc(Cl)cc2)ccc1NC(=O)Nc1ccc2c(c1)OCO2
inhibition at 10 µM: < 10%

The compound listed as `CCOC(=O)c1ccc(NC(=O)Nc2ccc(-c3cccs3)nc2C)cc1` shows inhibition at 10 µM equal to < 10%

Entry `Cc1nc(-c2cccs2)ccc1NC(=O)Nc1ccc(F)cc1` , inhibition at 10 µM reported as < 10%

Please fill in: inhibition at 10 µM reported for `Cc1nc(-c2ccc(F)cc2)ccc1NC(=O)Nc1cccc(C(F)(F)F)c1` = 20%

Note to self: inhibition at 10 µM recorded for `Cc1nc(-c2ccc(Cl)cc2)ccc1NC(=O)Nc1cccc(C(F)(F)F)c1` was < 10%

----------
System: WI-38 cell line
experimental-details: MTT cytotoxicity towards non-tumorigenic cells
Format: cell-based, human
experimental-context: WI-38; MTT; non-tumorigenic human lung fibroblast; mean ± SD of three experiments
result-type: IC50 (µM)
Form entry: value (µM) — number only.

Recorded IC50, per entry:
structure-smiles: Cc1nc(-c2ccc(F)cc2)ccc1NC(=O)Nc1ccc2c(c1)OCO2
test-result: 107
--
structure-smiles: Cc1nc(-c2cccs2)ccc1NC(=O)Nc1ccc2c(c1)OCO2
test-result: 139
--
structure-smiles: Cc1nc(-c2cccs2)ccc1NC(=O)Nc1ccc(F)cc1
test-result: 143
--
structure-smiles: COc1ccc(NC(=O)Nc2ccc(-c3ccc(Cl)cc3)nc2C)cc1
test-result: 116
--
structure-smiles: CCOC(=O)c1ccc(NC(=O)Nc2ccc(-c3cccs3)nc2C)cc1
test-result: 107

Per the record, `Cc1nc(-c2ccc(F)cc2)ccc1NC(=O)Nc1cccc(C(F)(F)F)c1` has IC50 of 93.5

Measured IC50 of `Cc1nc(-c2cccs2)ccc1NC(=O)Nc1ccc(Cl)cc1` : 129

Please fill in: IC50 reported for `CCOC(=O)c1ccc(NC(=O)Nc2ccc(-c3ccc(F)cc3)nc2C)cc1` = 123

Just so you know, measured IC50 for `Cc1nc(-c2ccc(Cl)cc2)ccc1NC(=O)Nc1ccc2c(c1)OCO2` came out at 63.5

# IC50 of `Cc1nc(-c2ccc(Cl)cc2)ccc1NC(=O)Nc1cccc(C(F)(F)F)c1` = 130

So for `Cc1nc(-c2ccc(F)cc2)ccc1NC(=O)Nc1cc(C(F)(F)F)cc(C(F)(F)F)c1` , the logged IC50 turned out to be 151
